# Test system: lymphoid leukemia L1210 cells
# ASSAY EXPLANATION: Inhibition of proliferation of cultured lymphoid leukemia L1210 cells
# Type: cell-based
# TEST CONDITIONS: Mus musculus, L1210; inhibits proliferation to 50% control growth during 48 hours (footnote a); read-out: ID50 (the source's name)
Cut-off 10 nM on IC50: below means 1 (yes), at or above means 0 (no).

COMPOUND	ASSIGNED LABEL
CCOC(=O)Nc1cc2c(c(N)n1)N=C(CN(C)c1ccc(OC)cc1)C(C)N2 (stereo not drawn) [R = 4-CH3 OC6 H4 N(CH3)CH2 (R4 = CH3)]	1 (yes)
CCOC(=O)Nc1cc2c(c(N)n1)N=C(CN(C)c1ccc(Cl)cc1)CN2 [R = 4-ClC6 H4 N(CH3)CH2 (R4 = H)]	0 (no)
CCOC(=O)Nc1cc2c(c(N)n1)N=C(CN(C)c1ccccc1)CN2 [R = C6 H5 N(CH3)CH2 (R4 = H)]	1 (yes)
CCOC(=O)Nc1cc2c(c(N)n1)N=C(CN(C)c1ccc(C(=O)OC)cc1)CN2 [R = 4-CH3 O2 CC6 H4 N(CH3)CH2 (R4 = H), reference compound]	0 (no)
CCOC(=O)Nc1cc2c(c(N)n1)N=C(CCc1ccccc1)CN2 [R = C6 H5 CH2 CH2 (R4 = H)]	0 (no)

Now for another entry.
Below 10 nM on IC50? Entry CCOC(=O)Nc1cc2c(c(N)n1)N=C(CN(C)c1ccc(OC)cc1)CN2 [R = 4-CH3 OC6 H4 N(CH3)CH2 (R4 = H)]
1 (yes)
